These measurements were taken from patent US20070213359A1.

measured on: Ghrelin receptor (Homo sapiens, UniProt Q92847)
Sequence (Q92847 whole entry): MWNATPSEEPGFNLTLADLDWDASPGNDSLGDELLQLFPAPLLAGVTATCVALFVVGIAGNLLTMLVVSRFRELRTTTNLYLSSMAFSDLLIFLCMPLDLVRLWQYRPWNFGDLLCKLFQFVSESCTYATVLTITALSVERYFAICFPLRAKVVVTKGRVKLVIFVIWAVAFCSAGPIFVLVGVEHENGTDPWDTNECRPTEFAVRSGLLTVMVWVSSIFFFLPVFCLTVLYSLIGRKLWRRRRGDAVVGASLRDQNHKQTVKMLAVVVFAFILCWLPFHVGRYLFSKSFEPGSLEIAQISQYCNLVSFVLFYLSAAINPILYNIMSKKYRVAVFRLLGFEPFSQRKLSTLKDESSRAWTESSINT
experimental protocol: Receptor Selection and Amplification Technology (R-SAT) assay
Format: cell-based
Set-up: expressed in transfected cells; host or cells: NIH3T3
measurement setup: read-out: RSAT Eff(%)
Give true (1) when the value for Emax is at least 50%. Give false (0) when it is less.

Reference set (6 entries):
>  <compound>
CC(=O)c1c(C)n(CCCN2CCC(c3nc(-c4cccnc4)no3)CC2)c2c(Br)cccc12

>  <class name>
false (0)

$$$$
>  <compound>
CCCCC1CCN(CCn2cc(C(C)=O)c3ccccc32)CC1

>  <class name>
false (0)

$$$$
>  <compound>
COc1cccc2c(C(=O)Cc3ccccc3)cn(CCCN3CCN(CCOc4ccc(Cl)c5ccccc45)CC3)c12

>  <class name>
false (0)

$$$$
>  <compound>
COc1cccc2c(C(=O)NCc3cccc(Cl)c3)cn(CCCN3C4CCC3CC(Oc3ccc(F)cc3)C4)c12 (centres unmarked)

>  <class name>
true (1)

$$$$
>  <compound>
CCC(=O)c1cn(CCCN2CCC(O)(Cc3ccccc3)CC2)c2ccccc12

>  <class name>
true (1)

$$$$
>  <compound>
COc1cccc2c(C(C)=O)cn(CCCN3C4CCC3CC(OCC3CC3)C4)c12 (centres unmarked)

>  <class name>
true (1)

$$$$

For this compound, is measured Emax 50% or higher? `COc1cccc2c(C(=O)NCc3cccc(C)c3)cn(CCCN3CCN(CCOc4ccc(Cl)cc4)CC3)c12`
true (1)

Decide: is the reported value of Emax for `COc1cccc2c(C(C)=O)cn(CCCN3CCC(C#N)(c4ccccc4)CC3)c12` equal to or greater than 50%?
true (1)

Threshold query (Emax >= 50%) on `CC(=O)c1cn(CCCCN2CCC(Oc3ccc(F)cc3)CC2)c2ccccc12`
false (0)

Is Emax for CCN(CC)C(=O)C1CCCN(CCCn2cc(C(C)=O)c3cccc(OC)c32)C1 (centres unmarked) at or above 50%?
false (0)
